Cited source for all entries: ChEMBL document CHEMBL4219151

Target or system DCN1-like protein 1 (Homo sapiens, UniProt Q96GG9); recorded quantity IC50.
assay.endpoint: IC50 (µM)

substance.smiles | subject.of.test | assay.endpoint | experimental.result
O=C(Nc1cccc(C(F)(F)F)c1)N(Cc1ccccc1)C1CCN(CCC(F)(F)F)CC1 | DCN1-like protein 1 (Homo sapiens, UniProt Q96GG9) | IC50 | 23
O=C(Nc1cccc(C(F)(F)F)c1)N(Cc1ccccc1)C1CCN(CC2CC2)CC1 | DCN1-like protein 1 (Homo sapiens, UniProt Q96GG9) | IC50 | 0.21
O=C(Nc1cccc(C(F)(F)F)c1)N(Cc1ccccc1)C1CCN(CC2CCCC2)CC1 | DCN1-like protein 1 (Homo sapiens, UniProt Q96GG9) | IC50 | 0.37
CCCCN(C(=O)Nc1cccc(C(F)(F)F)c1)C1CCN(CCC)CC1 | DCN1-like protein 1 (Homo sapiens, UniProt Q96GG9) | IC50 | 1.4
O=C(Nc1cccc(C(F)(F)F)c1)NC1CCN(Cc2ccccc2Cl)CC1 | DCN1-like protein 1 (Homo sapiens, UniProt Q96GG9) | IC50 | 28

====

Examples of compounds with documented pEC50 follow.
subject.of.test: DCN1-like protein 1 (Homo sapiens)
Sequence (Q96GG9 whole entry): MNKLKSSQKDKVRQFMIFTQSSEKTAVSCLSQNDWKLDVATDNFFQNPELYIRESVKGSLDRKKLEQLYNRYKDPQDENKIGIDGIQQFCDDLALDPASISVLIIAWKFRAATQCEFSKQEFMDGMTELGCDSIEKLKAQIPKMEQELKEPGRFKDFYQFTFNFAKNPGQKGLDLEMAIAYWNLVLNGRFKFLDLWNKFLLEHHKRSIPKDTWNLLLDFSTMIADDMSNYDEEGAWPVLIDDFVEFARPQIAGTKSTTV
assay.overview: Inhibition of human DCN1-mediated cullin neddylation assessed as reduction in transfer of fluorescein-5-maleimide-tagged NEDD8 from N-terminally acetylated human UBE2M to CUL2-CTD measured for 10 sec by pulse-chase assay
pEC50: −log10 of the molar value.
assay.endpoint: pEC50

compound | subject.of.test | assay.endpoint | experimental.result
CCCCN1CCC(N(Cc2ccc3c(c2)OCO3)C(=O)Nc2cccc(C(F)(F)F)c2)CC1 | DCN1-like protein 1 (Homo sapiens) | pEC50 | 6.96
CC(C)(C)N1CCC(N(Cc2ccc3c(c2)OCO3)C(=O)Nc2cccc(C(F)(F)F)c2)CC1 | DCN1-like protein 1 (Homo sapiens) | pEC50 | 6.43
CCCN1CCC(N(Cc2ccccc2)C(=O)Nc2cccc(C(F)(F)F)c2)CC1 | DCN1-like protein 1 (Homo sapiens) | pEC50 | 6.40
CCCC(C)N1CCC(N(Cc2ccccc2)C(=O)Nc2cccc(C(F)(F)F)c2)CC1 (configuration not stated) | DCN1-like protein 1 (Homo sapiens) | pEC50 | 7.10
CCCN1CCC(N(Cc2cc(F)cc(C(F)(F)F)c2)C(=O)Nc2cccc(C(F)(F)F)c2)CC1 | DCN1-like protein 1 (Homo sapiens) | pEC50 | 6.74
CCCCN1CCC(N(Cc2ccccc2)C(=O)Nc2cccc(C(F)(F)F)c2)CC1 | DCN1-like protein 1 (Homo sapiens) | pEC50 | 6.85
CCCN1CCC(N(Cc2ccco2)C(=O)Nc2cccc(C(F)(F)F)c2)CC1 | DCN1-like protein 1 (Homo sapiens) | pEC50 | 6.24

====

assay.overview: Permeability of the compound at 10 uM by PAMPA
Assay type: ADME
study.conditions: PAMPA; read-out: permeability
This listing pairs compounds with measured Papp at 10 µM.

substance.smiles | comparison.sign | Papp at 10 µM [×10⁻⁶ cm/s]
O=C(Nc1cccc(C(F)(F)F)c1)N(Cc1ccccc1)C1CCN(Cc2c[nH]cn2)CC1 | = | 50
O=C(Nc1cccc(C(F)(F)F)c1)N(Cc1ccccc1)C1CCNCC1 | > | 2200
O=C(Nc1cccc(-n2cccc2)c1)NC1CCN(Cc2ccccc2)CC1 | = | 930
O=C(Nc1cccc(C(F)(F)F)c1)N(Cc1ccccc1)C1CCN(Cc2ccccc2)CC1 | = | 300
CCCS(=O)(=O)N1CCC(N(Cc2ccccc2)C(=O)Nc2cccc(C(F)(F)F)c2)CC1 | < | 1

====

assay.overview: Permeability of the compound at 10 uM by PAMPA
Assay type: ADME
study.conditions: PAMPA; read-out: permeability
Recorded Papp at 10 µM for the following molecules
assay.endpoint: Papp at 10 µM

substance.smiles | experimental.result
CCCC(=O)N1CCC(N(Cc2ccccc2)C(=O)Nc2cccc(C(F)(F)F)c2)CC1 | > 2200 ×10⁻⁶ cm/s
CCCCS(=O)(=O)N1CCC(N(Cc2ccccc2)C(=O)Nc2cccc(C(F)(F)F)c2)CC1 | < 1 ×10⁻⁶ cm/s
O=C(Nc1cccc(CN2CCOCC2)c1)NC1CCN(Cc2ccccc2)CC1 | 220 ×10⁻⁶ cm/s
O=C(Nc1cccc(C(F)(F)F)c1)N(Cc1ccccc1)C1CCN(CC2CCCCC2)CC1 | < 1 ×10⁻⁶ cm/s
CCCN1CCC(N(Cc2ccncc2)C(=O)Nc2cccc(C(F)(F)F)c2)CC1 | 700 ×10⁻⁶ cm/s
Cn1nccc1-c1cccc(NC(=O)NC2CCN(Cc3ccccc3)CC2)c1 | > 2200 ×10⁻⁶ cm/s
O=C(Nc1cccc(C(F)(F)F)c1)N(Cc1ccccc1)C1CCN(CC2CCCC2)CC1 | 990 ×10⁻⁶ cm/s
Cc1cccc(CN2CCC(NC(=O)Nc3cccc(C(F)(F)F)c3)CC2)c1 | > 2200 ×10⁻⁶ cm/s
CCCN1CCC(N(CC2CCCCC2)C(=O)Nc2cccc(C(F)(F)F)c2)CC1 | > 2200 ×10⁻⁶ cm/s
CCCN1CCC(N(Cc2cc(F)cc(C(F)(F)F)c2)C(=O)Nc2cccc(C(F)(F)F)c2)CC1 | > 2200 ×10⁻⁶ cm/s
CC(C)CCN1CCC(N(Cc2ccccc2)C(=O)Nc2cccc(C(F)(F)F)c2)CC1 | > 2200 ×10⁻⁶ cm/s
O=C(Nc1cccc(C(F)(F)F)c1)NC1CCN(Cc2ccccc2)CC1 | 670 ×10⁻⁶ cm/s
CCCCN(C(=O)Nc1cccc(C(F)(F)F)c1)C1CCN(CCC)CC1 | > 2200 ×10⁻⁶ cm/s
O=C(Nc1cccc(C(F)(F)F)c1)N(Cc1ccccc1)C1CCN(Cc2ccc3c(c2)OCCO3)CC1 | > 2200 ×10⁻⁶ cm/s
CC(C)(C)N1CCC(N(Cc2ccc3c(c2)OCO3)C(=O)Nc2cccc(C(F)(F)F)c2)CC1 | > 2200 ×10⁻⁶ cm/s
O=C(Nc1cccc(C(F)(F)F)c1)N(Cc1ccccc1)C1CCN(Cc2cc[nH]n2)CC1 | > 2200 ×10⁻⁶ cm/s
CC(C)(C)CCN1CCC(N(Cc2ccccc2)C(=O)Nc2cccc(C(F)(F)F)c2)CC1 | > 2200 ×10⁻⁶ cm/s
O=C(Nc1cccc(C(F)(F)F)c1)NC1CCN(Cc2ccc(F)cc2)CC1 | > 2200 ×10⁻⁶ cm/s
CCOc1cc(CN2CCC(N(Cc3ccccc3)C(=O)Nc3cccc(C(F)(F)F)c3)CC2)cc(Cl)c1O | 110 ×10⁻⁶ cm/s

====

assay.overview: Permeability of the compound at 10 uM by PAMPA
Type: ADME
study.conditions: pampa, 10 µM
Let's look at some molecules and their measured permeability.
assay.endpoint: permeability

substance.smiles | experimental.result
CCCCCN1CCC(N(Cc2ccccc2)C(=O)Nc2cccc(C(F)(F)F)c2)CC1 | 1400 ×10⁻⁶ cm/s
O=C(Nc1cccc(C(F)(F)F)c1)NC1CCN(Cc2ccccc2F)CC1 | 1500 ×10⁻⁶ cm/s
CCCN1CCC(N(CCC(C)C)C(=O)Nc2cccc(C(F)(F)F)c2)CC1 | 1500 ×10⁻⁶ cm/s
CCCN1CCC(N(Cc2ccccc2)C(=O)Nc2cccc(C(F)(F)F)c2)CC1 | 1800 ×10⁻⁶ cm/s
O=C(Nc1cccc(C(F)(F)F)c1)NC1CCN(Cc2ccc(Cl)cc2)CC1 | 1300 ×10⁻⁶ cm/s

====

Reported Papp at 10 µM values for a set of compounds
assay.overview: Permeability of the compound at 10 uM by PAMPA
Type: ADME
study.conditions: PAMPA; read-out: permeability
assay.endpoint: Papp at 10 µM

substance.smiles | experimental.result
O=C(Nc1cccc(C(F)(F)F)c1)N(Cc1ccccc1)C1CCN(Cc2nccs2)CC1 | 310 ×10⁻⁶ cm/s
O=C(Nc1cccc(C(F)(F)F)c1)N(Cc1ccccc1)C1CCN(Cc2ccc3c(c2)OCO3)CC1 | > 2200 ×10⁻⁶ cm/s
O=C(Nc1cccc(C(F)(F)F)c1)N(Cc1ccccc1)C1CCN(CC2CC2)CC1 | > 2200 ×10⁻⁶ cm/s
O=C(Nc1cccc(C(F)(F)F)c1)NC1CCN(Cc2cccc(F)c2)CC1 | > 2200 ×10⁻⁶ cm/s
CCCN1CCC(N(Cc2ccc3c(c2)OCO3)C(=O)Nc2cccc(C(F)(F)F)c2)CC1 | > 2200 ×10⁻⁶ cm/s

====

// endpoint IC50 / system UniProtKB Q96GG9

substance.smiles | comparison.sign | IC50 / µM
O=C(Nc1cccc(I)c1)NC1CCN(Cc2ccccc2)CC1 | > | 67
O=C(Nc1cccc(C(F)(F)F)c1)N(Cc1ccccc1)C1CCN(Cc2ccc(F)cc2)CC1 | = | 10
COc1cccc(NC(=O)NC2CCN(Cc3ccccc3)CC2)c1 | > | 67
O=C(Nc1cccc(C(F)(F)F)c1)N(Cc1ccccc1)C1CCN(Cc2c[nH]cn2)CC1 | = | 5.9
O=C(Nc1ccc2c(c1)OCO2)NC1CCN(Cc2ccccc2)CC1 | > | 67
CCCN1CCC(N(Cc2ccccc2)C(=O)Nc2cccc(C(F)(F)F)c2)CC1 | = | 0.82
CCCN1CCC(N(CCC)C(=O)Nc2cccc(C(F)(F)F)c2)CC1 | = | 10
O=C(Nc1cccc(C(F)(F)F)c1)NC1CCN(Cc2ccccc2F)CC1 | = | 13
O=C(Nc1ccccc1)NC1CCN(Cc2ccccc2)CC1 | > | 67
O=C(Nc1cccc(C(F)(F)F)c1)N(Cc1ccccc1)C1CCN(Cc2cccnc2)CC1 | = | 20
